Can you tell me pEC50 for the items I'm about to list?
Target: EP4 receptor (Rattus norvegicus (Rat), UniProt P43114)
Sequence (P43114 whole entry): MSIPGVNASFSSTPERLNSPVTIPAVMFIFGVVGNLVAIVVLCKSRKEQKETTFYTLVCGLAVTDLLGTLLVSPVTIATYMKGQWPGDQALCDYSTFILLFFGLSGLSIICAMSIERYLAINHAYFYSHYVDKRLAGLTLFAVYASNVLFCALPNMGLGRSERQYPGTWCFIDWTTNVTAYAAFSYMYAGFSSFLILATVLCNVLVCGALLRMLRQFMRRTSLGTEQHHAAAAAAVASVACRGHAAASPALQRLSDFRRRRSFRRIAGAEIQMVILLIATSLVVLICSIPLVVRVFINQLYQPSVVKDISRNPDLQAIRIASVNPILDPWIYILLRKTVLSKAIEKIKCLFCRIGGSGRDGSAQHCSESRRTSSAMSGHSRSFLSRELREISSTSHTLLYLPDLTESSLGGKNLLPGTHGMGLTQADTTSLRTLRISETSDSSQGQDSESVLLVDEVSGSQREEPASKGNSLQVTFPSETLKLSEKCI
Assay: STEP plate cell functional assay, SEAP activity, EP4
Assay type: cell-based
Conditions: SEAP reporter, 6-8 hours stimulation
Lab note — pEC50 values are minus log10 of concentrations in M.

Form: Entry = `O=C(O)CCCCCCN1C(=O)CC[C@@H]1/C=C/[C@@H](O)CCCCc1ccccc1` | System = EP4 receptor (Rattus norvegicus (Rat), UniProt P43114) | pEC50 = ____
10.85

For the record CC(CCCc1ccccc1)[C@H](O)/C=C/[C@H]1CCC(=O)N1CCCCCCC(=O)O (mixture of isomers) , what value of pEC50 is listed for EP4 receptor (Rattus norvegicus (Rat), UniProt P43114)?
12.00

// map CC(CCCc1ccccc1)[C@@H](O)/C=C/[C@H]1CCC(=O)N1CC#Cc1ccc(C(=O)O)s1 (mixture of isomers) to recorded pEC50 (system: EP4 receptor (Rattus norvegicus (Rat), UniProt P43114))
7.50

Give the reported pEC50 for CC(CCCc1ccccc1)[C@H](O)/C=C/[C@H]1CCC(=O)N1CC#Cc1ccc(C(=O)O)s1 (mixture of isomers) (system: EP4 receptor (Rattus norvegicus (Rat), UniProt P43114)).
10.72

# get_value(readout= pEC50, system= EP4 receptor (Rattus norvegicus (Rat), UniProt P43114)) for CC(CCCc1ccccc1)[C@H](O)/C=C/[C@H]1CCC(=O)N1CCCc1ccc(C(=O)O)s1 (mixture of isomers)
11.52
